# system under test: T1, Murine Fibroblast Activation Protein (FAP) on B16 cells (mouse, UniProt P97321 1-761)
# T1 construct: B16 cells transduced with murine FAP cDNA; also called B16-FAP
# T1 sequence (P97321 other isoform, or with tags, fused parts or gaps): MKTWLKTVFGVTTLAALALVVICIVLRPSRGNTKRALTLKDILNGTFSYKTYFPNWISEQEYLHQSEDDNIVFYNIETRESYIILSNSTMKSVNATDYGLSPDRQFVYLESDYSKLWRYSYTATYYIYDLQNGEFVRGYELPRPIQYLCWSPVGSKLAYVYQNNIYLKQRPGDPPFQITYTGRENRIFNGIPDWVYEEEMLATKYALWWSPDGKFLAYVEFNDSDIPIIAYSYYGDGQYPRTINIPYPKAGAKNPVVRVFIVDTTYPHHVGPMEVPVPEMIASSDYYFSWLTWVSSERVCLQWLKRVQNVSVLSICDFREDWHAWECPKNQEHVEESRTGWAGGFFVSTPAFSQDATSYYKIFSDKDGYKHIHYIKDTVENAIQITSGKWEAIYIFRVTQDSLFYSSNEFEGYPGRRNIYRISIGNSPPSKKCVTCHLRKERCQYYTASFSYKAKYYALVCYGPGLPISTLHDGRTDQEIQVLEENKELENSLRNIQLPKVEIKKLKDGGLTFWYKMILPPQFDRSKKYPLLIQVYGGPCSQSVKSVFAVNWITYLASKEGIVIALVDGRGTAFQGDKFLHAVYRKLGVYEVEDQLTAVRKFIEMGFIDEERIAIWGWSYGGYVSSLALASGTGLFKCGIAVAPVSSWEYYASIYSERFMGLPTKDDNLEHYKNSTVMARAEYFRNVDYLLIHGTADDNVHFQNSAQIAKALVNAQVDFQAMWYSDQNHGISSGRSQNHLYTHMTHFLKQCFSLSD
# assay procedure: flow cytometry, scFv-Fc on B16-FAP cells
reported endpoint: MFI (MFI)
Supply the numeric figure in MFI, leaving out any unit text.

Documented MFI of FAP.84.A11 (Fc fusion, Tested as scFv-Fc; orientation, linker and Fc of this construct not specified) VH: DVQLVESGGGLVQPGGSLRLSCAASGFSMSNFAMTWVRQAPGEGLEWVSGIRGSGTTYYADSVKGRFTVSRDNSKNTLYLQMNSLRAEDTAIYYCAKTWGTEYFDYWGLGTLVTVSS VL: EIVLTQSPGTLSLSPGERATLSCRASQPINNYLAWYQQKPGQAPRLLIFSASNRATGIPDRFSGSGSGTEFTLTISSLEPEDFAVYYCQQYYDWPPYTFGGGTKVEIK : 1410
